Reported MIC is given for each of the following compounds.
system: Mycobacterium ulcerans; assay: Antimycobacterial activity against Mycobacterium ulcerans isolate CU001; type: functional
observation type: MIC (µg/mL)

{"record smiles": "CC[C@H]1OC(=O)[C@H](C)[C@@H](O[C@H]2C[C@@](C)(OC)[C@@H](O)[C@H](C)O2)[C@H](C)[C@@H](O[C@@H]2O[C@H](C)C[C@H](N(C)C)[C@H]2O)[C@](C)(OC)C[C@@H](C)C(=O)[C@H](C)[C@@H](O)[C@]1(C)O", "numeric value": 0.5}
{"record smiles": "CN[C@@H]1[C@H](O[C@H]2[C@H](O[C@H]3[C@H](O)[C@@H](O)[C@H](N=C(N)N)[C@@H](O)[C@@H]3N=C(N)N)O[C@@H](C)[C@]2(O)C=O)O[C@@H](CO)[C@H](O)[C@H]1O", "numeric value": 0.5}
{"record smiles": "COc1c(N2C[C@@H]3CCCN[C@@H]3C2)c(F)cc2c(=O)c(C(=O)O)cn(C3CC3)c12", "numeric value": 0.25}
{"record smiles": "CO[C@H]1/C=C/O[C@@]2(C)Oc3c(C)c(O)c4c(O)c(c(/C=N/N5CCN(C)CC5)c(O)c4c3C2=O)NC(=O)/C(C)=C\\C=C\\[C@H](C)[C@H](O)[C@@H](C)[C@@H](O)[C@@H](C)[C@H](OC(C)=O)[C@@H]1C", "numeric value": 2}

Every entry's value here was drawn from ChEMBL document CHEMBL1153834.
